# Tgt: T1, human CD47 on cells (human, UniProt Q08722 19-323)
# T1 construct: also called CD47 on Molm-13, OVCAR-3, Suit-2 MSLN, HL-60 cells, red blood cells and CD47-transfected CHO cells
# Experiment Description: flow cytometry on CD47-positive Expi293 cells, 50 nM antibody; MFI of the antibody over MFI of the isotype control
# Procedure: Initially, binding of anti-hCD47 IgG4, anti-hCD47 IgG1 antibodies and Fab domains were measured on CD47-expressing cells by flow cytometry. Cells were stained with 50 nM of antibody followed by staining with a secondary fluorescently labelled anti-human IgG Fc or light-chain antibody, and analyzed by flow cytometry. Binding was measured by calculating the median fluorescence intensity (MFI) ratio, by dividing MFI of the antibody by the MFI of the isotype control.
Returns 1 (yes) if the recorded MFI ratio is greater than or equal to 3, and 0 (no) otherwise.

Binder	Group
2D6-011 (antibody, IgG4, V domains shown, also called VH3/VL3) VH: QVQLVESGGGLVQPGGSLRLSCAASGYTFTSYDINWVRQAPGKGLEWVGWIYPRDGSPKYNEKFKGRFTISADTSKNTAYLQMNSLRAEDTAVYYCARSVYYGTQFAYWGQGTLVTVSS VL: DIQMTQSPSSLSASVGDRVTITCKSSQSLLNSRTRKNYLAWYQQKPGKAPKLLIYWASTRDSGVPSRFSGSGSGTDFTLTISSLQPEDFATYYCKQSFNLVTFGQGTKVEIK	1 (yes)
2D6-002 (antibody, IgG4, V domains shown, also called VH1/VL2) VH: QVELVQSGAEVKKPGSSVKVSCKASGGTFPSYDINWVRQAPGQGLEWMGWIYPRDGSPKYNEKFKGRVTITADESTSTAYMELSSLRSEDTAVYYCARSVYYGTQFAYWGQGTLVTVSS VL: DIVMTQSPSSLAVSLGERVTMSCKSSQSLLNSRTRKNYLAWYQQKPGQPPKLLIYWASTRDSGVPDRFSGSGSGTDFTLTISSLQAEDVAVYYCKQSFNLVTFGGGTKLEIK	0 (no)
2D6-015 (antibody, IgG4, V domains shown, hIgG4 (humanized IgG4); only the variable domains are tied to the construct; also called VH4/VL3) VH: QVQLVESGGGLVQPGGSLRLSCAASGYTFPSYDINWVRQAPGKGLEWVGWIYPRDGSPKYNEKFKGRFTISADTSKNTAYLQMNSLRAEDTAVYYCARSVYYGTQFAYWGQGTLVTVSS VL: DIQMTQSPSSLSASVGDRVTITCKSSQSLLNSRTRKNYLAWYQQKPGKAPKLLIYWASTRDSGVPSRFSGSGSGTDFTLTISSLQPEDFATYYCKQSFNLVTFGQGTKVEIK	1 (yes)
2D6-016 (antibody, IgG4, V domains shown, hIgG4 (humanized IgG4); only the variable domains are tied to the construct; also called VH4/VL4) VH: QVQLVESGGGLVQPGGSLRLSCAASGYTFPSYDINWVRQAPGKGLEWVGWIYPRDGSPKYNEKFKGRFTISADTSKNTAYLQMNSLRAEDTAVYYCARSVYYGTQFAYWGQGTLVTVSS VL: DIVMTQSPSSLSASVGDRVTITCKSSQSLLNSRTRKNYLAWYQQKPGKAPKLLIYWASTRDSGVPDRFSGSGSGTDFTLTISSLQPEDFATYYCKQSFNLVTFGQGTKVEIK	1 (yes)
2D6-012 (antibody, IgG4, V domains shown, also called VH3/VL4) VH: QVQLVESGGGLVQPGGSLRLSCAASGYTFTSYDINWVRQAPGKGLEWVGWIYPRDGSPKYNEKFKGRFTISADTSKNTAYLQMNSLRAEDTAVYYCARSVYYGTQFAYWGQGTLVTVSS VL: DIVMTQSPSSLSASVGDRVTITCKSSQSLLNSRTRKNYLAWYQQKPGKAPKLLIYWASTRDSGVPDRFSGSGSGTDFTLTISSLQPEDFATYYCKQSFNLVTFGQGTKVEIK	1 (yes)
